Data provenance: patent US4946855A

System: 48-Hours PCA (passive cutaneous anaphylaxis)
Experiment: Test Example 1: Anti-passive cutaneous anaphylaxis (PCA) activity in rats, 48-Hours PCA (Ia compounds)
Type: in vivo, rat (Wistar strain male)
Conditions: Rattus norvegicus, po, 15 mg/kg, perorally, 1 hour before the elicitation
Use label 1 when the recorded inhibition in vivo at 15 mg/kg is no lower than 50%; use label 0 when it is lower.

[[record]]
chemical_string = "Cc1cccc(-c2nc(NC(=O)c3nnn[nH]3)cs2)c1"
label = "label 0"

[[record]]
chemical_string = "CC(C)c1ccc(-c2nc(NC(=O)c3nnn[nH]3)cs2)cc1"
label = "label 0"

[[record]]
chemical_string = "O=C(Nc1csc(-c2cccnc2)n1)c1nnn[nH]1"
label = "label 0"

[[record]]
chemical_string = "COc1ccc(-c2nc(NC(=O)c3nnn[nH]3)cs2)cc1"
label = "label 1"

[[record]]
chemical_string = "O=C(Nc1csc(-c2cccs2)n1)c1nnn[nH]1"
label = "label 0"

[[record]]
chemical_string = "CC(C)(C)c1ccc(-c2nc(NC(=O)c3nnn[nH]3)cs2)cc1"
label = "label 0"

[[record]]
chemical_string = "Cc1nc(NC(=O)c2nnn[nH]2)cs1"
label = "label 1"

[[record]]
chemical_string = "O=C(Nc1csc(-c2ccc3ccccc3n2)n1)c1nnn[nH]1"
label = "label 0"

[[record]]
chemical_string = "Cc1ccccc1-c1nc(NC(=O)c2nnn[nH]2)cs1"
label = "label 1"

